Reference source for all entries: patent US8871934B2

Each entry below lists one item and its recorded IC50 value.
Target: human PDHK2 (hPDHK2) (Homo sapiens (Human))
Assay: Inhibitory action of PDHK activity in vitro (kinase reaction, residual PDH activity measured)
Assay type: biochemical
Conditions: PDHK inhibitory activity, class symbol of IC50
Method: In the case of human PDHK2 (hPDHK2, Genbank Accession No. NM_002611), modified hPDHK2 cDNA wherein FLAG-Tag sequence is added to the N terminal by a polymerase linkage reaction was prepared based on hPDHK2 cDNA clone (pReceiver-M01/PDK2-GeneCopoeia), and cloned into a vector (pET17b-Novagen). The recombinant construct was transformed into Escherichia coli (DH5α-TOYOBO). The recombinant clones were identified, plasmid DNA was isolated and subjected to the DNA sequence analysis. […]

**Q:** Give human PDHK2 (hPDHK2) (Homo sapiens (Human)) IC50 for CN(C)C(=O)c1ccc(-c2ccc3c(c2)C(O)(C(F)(F)F)c2ccccc2-3)cc1Cl (stereo not shown) [compound 241]
**A:** < 0.1 µM

**Q:** And OCCCOc1ccc2c(c1)C(O)(C(F)(F)F)c1ccccc1-2 (stereo not shown) [compound 284] ?
**A:** > 1 µM

**Q:** And O=C(c1cc(Cl)c2c(c1)C(O)(C(F)(F)F)c1ccccc1-2)N1CC(CO)C1 (stereo not shown) [compound 330] ?
**A:** 0.1 to 1 µM

**Q:** And CN(CCCCO)C(=O)c1ccc2c(c1)C(O)(C(F)(F)F)c1ccccc1-2 (stereo not shown) [compound 319] ?
**A:** > 1 µM

**Q:** And CCCOC1CN(C(=O)c2ccc3c(c2)C(O)(C(F)(F)F)c2ccccc2-3)C1 (stereo not shown) [compound 105] ?
**A:** 0.1 to 1 µM

**Q:** And CNC1CCN(C(=O)c2ccc3c(c2)C(O)(C(F)(F)F)c2ccccc2-3)C1 (stereo not shown) [compound 228] ?
**A:** > 1 µM

* * *

target: human PDHK2 (hPDHK2) (Homo sapiens (Human)); test: Inhibitory action of PDHK activity in vitro (kinase reaction, residual PDH activity measured); format: biochemical; conditions: PDHK inhibitory activity, class symbol of IC50
pIC50: −log10 of the molar value.
property: pIC50

Completed entries (count: 5):
CC(C)C(=O)Nc1ccc2c(c1)-c1ccccc1C2(O)C(F)(F)F (stereo not shown)	< 6.00
Cn1cc(-c2cc(OCC(O)CO)cc3c2-c2ccccc2C3(O)C(F)(F)F)cn1 (stereo not shown)	> 7.00
CN(C)C(=O)CCCCOc1ccc2c(c1)C(O)(C(F)(F)F)c1ccccc1-2 (stereo not shown)	6.00 to 7.00
NCCCOc1ccc2c(c1)C(O)(C(F)(F)F)c1ccccc1-2 (stereo not shown)	< 6.00
Cc1cc(-c2cnn(CCC(=O)O)c2)c2c(c1)C(O)(C(F)(F)F)c1ccccc1-2 (single isomer, unassigned; (+))	> 7.00

**Q:** Give human PDHK2 (hPDHK2) (Homo sapiens (Human)) pIC50 for CN(C)c1cccc2c1-c1ccccc1C2(O)C(F)(F)F (stereo not shown)
**A:** < 6.00

**Q:** And Cn1cc(-c2cc(OCC(=O)N3CC(O)C3)cc3c2-c2ccccc2C3(O)C(F)(F)F)cn1 (single isomer, unassigned) ?
**A:** > 7.00

* * *

biological target: human PDHK2 (hPDHK2) (Homo sapiens (Human), UniProt Q15119); experiment: Inhibitory action of PDHK activity in vitro (kinase reaction, residual PDH activity measured); format: biochemical; conditions: PDHK inhibitory activity, class symbol of IC50
pIC50: −log10 of the molar value.
property: pIC50

**Q:** Find the recorded pIC50 belonging to OC1(C(F)(F)F)c2ccccc2-c2ccc(OCC3CCCC3)cc21 (stereo not drawn) and report it.
**A:** < 6.00

**Q:** And CC(C)CCOc1ccc2c(c1)C(O)(C(F)(F)F)c1ccccc1-2 (stereo not drawn) ?
**A:** < 6.00

**Q:** And OCCCCCOc1cc(Cl)c2c(c1)C(O)(C(F)(F)F)c1ccccc1-2 (stereo not drawn) ?
**A:** > 7.00

**Q:** And Cn1cc(-c2cc(CO)c3c(c2)C(O)(C(F)(F)F)c2ccccc2-3)cn1 (stereo not drawn) ?
**A:** 6.00 to 7.00

**Q:** And CC(=O)N(C)CCOc1cc(-c2cncnc2)c2c(c1)C(O)(C(F)(F)F)c1ccccc1-2 (stereo not drawn) ?
**A:** > 7.00

**Q:** And CCN(CC)C(=O)c1ccc2c(c1)C(O)(C(F)(F)F)c1ccccc1-2 (stereo not drawn) ?
**A:** < 6.00

**Q:** And CN(CCOc1ccc2c(c1)C(O)(C(F)(F)F)c1ccccc1-2)CC(=O)O (stereo not drawn) ?
**A:** < 6.00

**Q:** And Cn1cc(-c2cc(CO)cc3c2-c2ccccc2C3(O)C(F)(F)F)cn1 (stereo not drawn) ?
**A:** > 7.00

**Q:** And OC1(C(F)(F)F)c2cc(Cl)ccc2-c2ccc(Cl)cc21 ?
**A:** < 6.00

**Q:** And OC1(C(F)(F)F)c2ccccc2-c2c(-c3ncco3)cccc21 (stereo not drawn) ?
**A:** < 6.00

**Q:** And OC1(C(F)(F)F)c2ccccc2-c2ccc(N3CCCCC3)cc21 (stereo not drawn) ?
**A:** < 6.00

* * *

target: human PDHK2 (hPDHK2) (Homo sapiens (Human), UniProt Q15119); experiment: Inhibitory action of PDHK activity in vitro (kinase reaction, residual PDH activity measured); assay type: biochemical; conditions: read-out: PDHK inhibitory activity IC50
Each entry below lists one item and its recorded pIC50 value.
In simple prose, pIC50 is minus the logarithm base ten of a concentration in moles per litre.

**Q:** Find the recorded pIC50 belonging to CCc1cc(-c2cnn(C(CO)CO)c2)c2c(c1)C(O)(C(F)(F)F)c1ccccc1-2 (centres unmarked) [compound 653] and report it.
**A:** 7.43

**Q:** And OC1(C(F)(F)F)c2ccccc2-c2ccc(N3CCCCC3)cc21 (centres unmarked) [compound 148] ?
**A:** 5.07

**Q:** And CC(=O)N(C)Cc1ccc2c(c1)C(O)(C(F)(F)F)c1ccccc1-2 (centres unmarked) [compound 418] ?
**A:** 5.22

* * *

target: UniProtKB Q15119; assay: Inhibitory action of PDHK activity in vitro (kinase reaction, residual PDH activity measured); type: biochemical; conditions: read-out: PDHK inhibitory activity IC50
pIC50: −log10 of the molar value.
Each entry below lists one item and its recorded pIC50 value.

CC(C)(O)c1cc(-c2cnn(CCO)c2)cc2c1-c1ccccc1C2(O)C(F)(F)F (stereo not drawn)	< 6.00
Cc1nn(C)c(C)c1-c1ccc2c(c1)C(O)(C(F)(F)F)c1ccccc1-2 (stereo not drawn)	< 6.00

Here's the next entry for you.
**Q:** Find the recorded pIC50 belonging to Cn1nnnc1-c1cccc2c1-c1ccccc1C2(O)C(F)(F)F (stereo not drawn) and report it.
**A:** < 5.00

* * *

Each entry below lists one item and its recorded IC50 value.
molecular target: human PDHK2 (hPDHK2) (Homo sapiens (Human)); experiment: Inhibitory action of PDHK activity in vitro (kinase reaction, residual PDH activity measured); assay type: biochemical; conditions: PDHK inhibitory activity, class symbol of IC50

Completed entries (count: 5):
O=C(c1cc(Cl)c2c(c1)C(O)(C(F)(F)F)c1ccccc1-2)N1CCC1 (centres unmarked) [compound 94]	< 100 nM
CCCOc1ccc2c(c1)C(O)(C(F)(F)F)c1ccccc1-2 (centres unmarked) [compound 265]	> 1000 nM
Nc1cccc2c1-c1ccccc1C2(O)C(F)(F)F (centres unmarked) [compound 20]	> 1000 nM
CN(C)C(=O)CCCOc1ccc2c(c1)C(O)(C(F)(F)F)c1ccccc1-2 (centres unmarked) [compound 282]	100 to 1000 nM
OC1(C(F)(F)F)c2ccccc2-c2ccc(OC3CCCC3)cc21 (centres unmarked) [compound 259]	> 1000 nM

**Q:** Find the recorded IC50 belonging to OC1(C(F)(F)F)c2ccccc2-c2ccc(Cc3ccccc3)cc21 (centres unmarked) [compound 317] and report it.
**A:** > 1000 nM

**Q:** And O=C(COc1ccc2c(c1)C(O)(C(F)(F)F)c1ccccc1-2)N1CCOCC1 (centres unmarked) [compound 362] ?
**A:** > 1000 nM

**Q:** And O=C(COc1cc(-c2cnn(CCO)c2)c2c(c1)C(O)(C(F)(F)F)c1ccccc1-2)N1CC(O)C1 (centres unmarked) [compound 497] ?
**A:** < 100 nM

**Q:** And CN(CCO)C(=O)COc1ccc2c(c1)C(O)(C(F)(F)F)c1ccccc1-2 (centres unmarked) [compound 366] ?
**A:** > 1000 nM

**Q:** And CC1CCN1C(=O)c1ccc2c(c1)C(O)(C(F)(F)F)c1ccccc1-2 (centres unmarked) [compound 90] ?
**A:** 100 to 1000 nM

**Q:** And Cn1cc(-c2cc(OCCCCC(=O)O)cc3c2-c2ccccc2C3(O)C(F)(F)F)cn1 (single isomer, unassigned) [compound 552] ?
**A:** < 100 nM

**Q:** And NC(=O)COC1CN(C(=O)c2cc(Cl)c3c(c2)C(O)(C(F)(F)F)c2ccccc2-3)C1 (centres unmarked) [compound 349] ?
**A:** 100 to 1000 nM

**Q:** And CC(Oc1ccc2c(c1)C(O)(C(F)(F)F)c1ccccc1-2)C(=O)O (centres unmarked) [compound 413] ?
**A:** > 1000 nM

**Q:** And Cn1cc(-c2cc(OCCN3CCCC3=O)cc3c2-c2ccccc2C3(O)C(F)(F)F)cn1 (centres unmarked) [compound 412] ?
**A:** < 100 nM

**Q:** And Cc1ccc2c(c1)-c1ccccc1C2(O)C(F)(F)F (centres unmarked) [compound 10] ?
**A:** > 1000 nM
